conditions: buffer; pH 7.4; 200.0 µM
Catalogue of compounds with associated solubility kinetic
Reply numerically in µg/mL, unit not repeated.

Worked examples, 4 compounds total:
Qu. May I ask what solubility kinetic has been recorded for CC(NC(=S)N1CCN(c2ccccc2)CC1)c1ccccc1 (configuration not stated) ?
Ans. 0.4

Qu. May I ask what solubility kinetic has been recorded for Cc1ccc(C(=O)Nc2c[nH]c(=O)[nH]c2=O)cc1 ?
Ans. 7.9

Qu. May I ask what solubility kinetic has been recorded for CCOc1ccc(-c2c(=O)n(OCC)c3ccccc3[n+]2[O-])cc1 ?
Ans. 21.1

Qu. May I ask what solubility kinetic has been recorded for CSc1ncc(Cl)c(C(=O)Nc2c(C)cccc2C)n1 ?
Ans. 2.3

Further cases:
Qu. May I ask what solubility kinetic has been recorded for CC(=O)c1cc(C)ccc1OC(=O)c1ccncc1 ?
Ans. 35.8

Qu. May I ask what solubility kinetic has been recorded for CCCCOc1ccc(CSC(=N)N)cc1Cl.Cl ?
Ans. 40.6

Qu. May I ask what solubility kinetic has been recorded for COc1ccc(S(=O)(=O)Nc2ccc(C)cn2)cc1 ?
Ans. 25.4

Qu. May I ask what solubility kinetic has been recorded for Cc1c2n(c3ccccc13)CC/C2=N\O ?
Ans. 4.9

Qu. May I ask what solubility kinetic has been recorded for O=C1CCCC/C1=C\Nc1ccc(S(=O)(=O)Nc2cnc3ccccc3n2)cc1 ?
Ans. 15.9

Qu. May I ask what solubility kinetic has been recorded for Cc1ccc(S(=O)(=O)N2CCN(CC(=O)N3CCOCC3)CC2)cc1 ?
Ans. 54.7

Qu. May I ask what solubility kinetic has been recorded for CCOc1ncccc1C(=O)Nc1ccc(F)cc1 ?
Ans. 13.7

These data points were gathered from PubChem BioAssay AID1996.
